Values compiled from paper PMC5615938.

Field: pIC50. Provide a value for each of the compounds that follow.
Target: Silver catfish (Synodontis eupterus) major hepatic glutathione transferase (seGST)
Details: pH 6.5, 1 mM CDNB and 1 mM GSH
Remember, pIC50 is on a log scale: it is -log10 of the molar concentration.

For "CCCCCCSC[C@H](NC(=O)CC[C@H](N)C(=O)O)C(=O)NCC(=O)O" the compound record lists pIC50 as 4.75

Lookup result for [Cl][Sn]([c]1ccccc1)([c]1ccccc1)[c]1ccccc1 [Triphenytin chloride, triphenyltin chloride] ; measured pIC50: 7.30

GET /value?item= "Nc1c(S(=O)(=O)O)cc(Nc2ccc(Nc3nc(Cl)nc(Nc4ccccc4S(=O)(=O)O)n3)c(S(=O)(=O)O)c2)c2c1C(=O)c1ccccc1C2=O" &field=pIC50 returns 8.00

For "C=CC1=C(C)c2cc3[n-]c(cc4[n-]c(cc5nc(cc1n2)C(C)=C5C=C)c(C)c4CCC(=O)O)c(CCC(=O)O)c3C.[Fe+2]" the compound record lists pIC50 as 5.30

Record summary for "O=C1OC(c2ccc(O)c(S(=O)(=O)O)c2)(c2ccc(O)c(S(=O)(=O)O)c2)c2c(Br)c(Br)c(Br)c(Br)c21" : reported pIC50 = 4.32

Form field pIC50, entry "C=C(CC)C(=O)c1ccc(OCC(=O)O)c(Cl)c1Cl" : 4.67
